Biological target: EPHB2 (UniProt P29323)
Sequence (P29323 whole entry, looked up): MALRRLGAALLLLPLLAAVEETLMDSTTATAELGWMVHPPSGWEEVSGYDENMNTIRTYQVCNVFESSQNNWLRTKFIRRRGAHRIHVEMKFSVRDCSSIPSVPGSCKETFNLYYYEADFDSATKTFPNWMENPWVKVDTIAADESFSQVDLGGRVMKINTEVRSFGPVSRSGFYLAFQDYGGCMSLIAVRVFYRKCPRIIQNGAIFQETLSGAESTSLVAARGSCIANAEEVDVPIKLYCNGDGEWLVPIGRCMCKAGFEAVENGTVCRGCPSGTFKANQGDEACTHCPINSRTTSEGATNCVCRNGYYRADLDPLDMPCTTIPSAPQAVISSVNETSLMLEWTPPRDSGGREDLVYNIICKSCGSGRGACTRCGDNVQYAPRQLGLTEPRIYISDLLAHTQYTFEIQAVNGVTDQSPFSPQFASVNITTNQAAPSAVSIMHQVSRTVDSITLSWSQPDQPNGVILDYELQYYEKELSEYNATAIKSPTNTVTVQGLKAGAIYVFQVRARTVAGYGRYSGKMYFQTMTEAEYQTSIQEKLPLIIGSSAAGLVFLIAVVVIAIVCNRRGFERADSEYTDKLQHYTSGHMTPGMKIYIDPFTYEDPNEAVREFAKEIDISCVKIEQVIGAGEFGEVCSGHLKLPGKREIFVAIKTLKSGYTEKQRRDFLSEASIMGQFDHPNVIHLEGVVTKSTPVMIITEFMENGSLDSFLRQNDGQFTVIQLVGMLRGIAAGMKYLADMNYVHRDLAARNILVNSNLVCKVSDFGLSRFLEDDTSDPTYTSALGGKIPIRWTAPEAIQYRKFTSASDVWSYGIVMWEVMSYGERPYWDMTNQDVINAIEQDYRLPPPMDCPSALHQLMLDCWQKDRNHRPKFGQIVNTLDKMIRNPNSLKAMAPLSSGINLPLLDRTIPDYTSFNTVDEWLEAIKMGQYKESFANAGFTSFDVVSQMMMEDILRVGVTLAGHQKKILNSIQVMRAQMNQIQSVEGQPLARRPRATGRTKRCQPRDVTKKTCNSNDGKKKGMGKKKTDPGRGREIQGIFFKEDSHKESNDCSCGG
Assay: phosphorylation enrichment, bacterial display (enrichment ratio); higher = better substrate or ligand; peptides without Tyr show the background;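 note: 11-residue human phosphosite peptides and single-mutation variants displayed on the E. coli surface, counted by deep sequencing, each peptide's frequency after selection divided by its frequency in the unselected input library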;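 note: frequency after pTyr selection over input frequency; kinase dosed for 20-30% of maximal phosphorylation in three min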
endpoint_name: phosphorylation enrichment
Enter the number alone.

[ask] Find the measured phosphorylation enrichment of DEQKKYYNAMK [SCN5A_Y1494_E1489D] with EPHB2 (UniProt P29323) as test system.
[reply] 0.543

[ask] Determine reported phosphorylation enrichment for KELSSYKHLTL [SLIT2_Y776_N775S] ; test system: EPHB2 (UniProt P29323).
[reply] 0.38

[ask] State phosphorylation enrichment (EPHB2 (UniProt P29323)) of GPKSTYISSAG [GOLGA5_Y62_A67G] .
[reply] 0.382

Others:
[ask] State measured phosphorylation enrichment of the sequence PSQRRNVFFFS [PTEN_Y174_Y174N_YF] with EPHB2 (UniProt P29323).
[reply] 0.342

[ask] Give the observed phosphorylation enrichment of LASLIYNFVLF [AQP6_Y231] for EPHB2 (UniProt P29323).
[reply] 4.52
